Assignment: determine reported Th-T fluorescence, mean of three wells for the given compounds.
target: Aβ42 (Homo sapiens, UniProt P05067); test: Th-T (thioflavin-T) assay of Aβ42 aggregation; assay type: biochemical; conditions: compound at 10; reading M50 of time course
Sequence (P05067 672-713): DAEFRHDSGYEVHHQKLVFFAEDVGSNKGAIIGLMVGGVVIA
The answer should be written as a number, with no unit following it.

INPUT: Name the recorded Th-T fluorescence, mean of three wells of the item C=C1CCC2C(C)(CCC=C(C)C)C(O)CCC2(C)C1Cc1c(OC)oc(C)c(C(=O)OC)c1=O (centres unmarked) in your answer.
OUTPUT: 2.53

INPUT: Name the recorded Th-T fluorescence, mean of three wells of the item C=C1CC[C@@H]2[C@](C)(CC[C@H]3O[C@H](C=C(C)C)C[C@@]23C)[C@@H]1Cc1c(OC)oc(CO)c(C)c1=O in your answer.
OUTPUT: 3.479

INPUT: Name the recorded Th-T fluorescence, mean of three wells of the item C=C1CCC2C(C)(CCC=C(C)C)C(O)CCC2(C)C1Cc1c(OC)oc(CO)c(C(=O)OC)c1=O (centres unmarked) in your answer.
OUTPUT: 1.5062

INPUT: Name the recorded Th-T fluorescence, mean of three wells of the item C=C1CCC2C(C)(CCC=C(C)C)C(O)CCC2(C)C1Cc1c(OC)oc(CO)c(C)c1=O (centres unmarked) in your answer.
OUTPUT: 3.418

INPUT: Name the recorded Th-T fluorescence, mean of three wells of the item C=C1CC[C@@H]2[C@](C)(CC[C@H]3O[C@H](C=C(C)C)C[C@@]23C)[C@@H]1Cc1c(OC)oc(CO)c(C(=O)OC)c1=O in your answer.
OUTPUT: 0.2709

###

target: UniProt:P05067; assay: Th-T (thioflavin-T) assay of Aβ42 aggregation; assay type: biochemical; conditions: reading M112; compound at 50 (head suffix _50)
Assignment: determine reported Th-T fluorescence, mean of three wells (Fig. 7a) for the given compounds.

INPUT: Name the recorded Th-T fluorescence, mean of three wells (Fig. 7a) of the item C=C1CC[C@@H]2[C@](C)(CC[C@H]3O[C@H](C=C(C)C)C[C@@]23C)[C@@H]1Cc1c(OC)oc(CO)c(C(=O)OC)c1=O in your answer.
OUTPUT: 0.4858

INPUT: Name the recorded Th-T fluorescence, mean of three wells (Fig. 7a) of the item C=C1CC[C@@H]2[C@](C)(CC[C@H]3O[C@H](C=C(C)C)C[C@@]23C)[C@@H]1Cc1c(OC)oc(CO)c(C)c1=O in your answer.
OUTPUT: 2.0956

INPUT: Name the recorded Th-T fluorescence, mean of three wells (Fig. 7a) of the item C=C1CCC2C(C)(CCC=C(C)C)C(O)CCC2(C)C1Cc1c(OC)oc(CO)c(C)c1=O (centres unmarked) in your answer.
OUTPUT: 1.449

INPUT: Name the recorded Th-T fluorescence, mean of three wells (Fig. 7a) of the item C=C1CCC2C(C)(CCC=C(C)C)C(O)CCC2(C)C1Cc1c(OC)oc(CO)c(C(=O)OC)c1=O (centres unmarked) in your answer.
OUTPUT: 0.4724

INPUT: Name the recorded Th-T fluorescence, mean of three wells (Fig. 7a) of the item C=C1CCC2C(C)(CCC=C(C)C)C(O)CCC2(C)C1Cc1c(OC)oc(C)c(C(=O)OC)c1=O (centres unmarked) in your answer.
OUTPUT: 1.153

###

target: Aβ42 (Homo sapiens); test: Th-T (thioflavin-T) assay of Aβ42 aggregation; format: biochemical; details: column suffix _10; measurement M24
Assignment: determine reported Th-T fluorescence, mean of three wells (Fig. 7a) for the given molecules.
The answer should be written as a number, with no unit following it.

INPUT: Name the recorded Th-T fluorescence, mean of three wells (Fig. 7a) of the item C=C1CC[C@@H]2[C@](C)(CC[C@H]3O[C@H](C=C(C)C)C[C@@]23C)[C@@H]1Cc1c(OC)oc(CO)c(C)c1=O in your answer.
OUTPUT: 3.465

INPUT: Name the recorded Th-T fluorescence, mean of three wells (Fig. 7a) of the item C=C1CC[C@@H]2[C@](C)(CC[C@H]3O[C@H](C=C(C)C)C[C@@]23C)[C@@H]1Cc1c(OC)oc(CO)c(C(=O)OC)c1=O in your answer.
OUTPUT: 0.2323

INPUT: Name the recorded Th-T fluorescence, mean of three wells (Fig. 7a) of the item C=C1CCC2C(C)(CCC=C(C)C)C(O)CCC2(C)C1Cc1c(OC)oc(CO)c(C)c1=O (centres unmarked) in your answer.
OUTPUT: 2.757

INPUT: Name the recorded Th-T fluorescence, mean of three wells (Fig. 7a) of the item C=C1CCC2C(C)(CCC=C(C)C)C(O)CCC2(C)C1Cc1c(OC)oc(CO)c(C(=O)OC)c1=O (centres unmarked) in your answer.
OUTPUT: 0.2631

INPUT: Name the recorded Th-T fluorescence, mean of three wells (Fig. 7a) of the item C=C1CCC2C(C)(CCC=C(C)C)C(O)CCC2(C)C1Cc1c(OC)oc(C)c(C(=O)OC)c1=O (centres unmarked) in your answer.
OUTPUT: 2.258

###

Assignment: determine reported Th-T fluorescence, mean of three wells (Fig. 7a) for the given compounds.
target: Aβ42 (Homo sapiens, UniProt P05067); assay: Th-T (thioflavin-T) assay of Aβ42 aggregation; format: biochemical; details: reading M124; compound at 50 (head suffix _50)
The answer should be written as a number, with no unit following it.

INPUT: Name the recorded Th-T fluorescence, mean of three wells (Fig. 7a) of the item C=C1CCC2C(C)(CCC=C(C)C)C(O)CCC2(C)C1Cc1c(OC)oc(C)c(C(=O)OC)c1=O (centres unmarked) [Compound 14] in your answer.
OUTPUT: 0.9345

INPUT: Name the recorded Th-T fluorescence, mean of three wells (Fig. 7a) of the item C=C1CCC2C(C)(CCC=C(C)C)C(O)CCC2(C)C1Cc1c(OC)oc(CO)c(C(=O)OC)c1=O (centres unmarked) [Compound 13] in your answer.
OUTPUT: 0.4785

INPUT: Name the recorded Th-T fluorescence, mean of three wells (Fig. 7a) of the item C=C1CCC2C(C)(CCC=C(C)C)C(O)CCC2(C)C1Cc1c(OC)oc(CO)c(C)c1=O (centres unmarked) [Compound 12] in your answer.
OUTPUT: 1.559

INPUT: Name the recorded Th-T fluorescence, mean of three wells (Fig. 7a) of the item C=C1CC[C@@H]2[C@](C)(CC[C@H]3O[C@H](C=C(C)C)C[C@@]23C)[C@@H]1Cc1c(OC)oc(CO)c(C)c1=O [Compound 20] in your answer.
OUTPUT: 2.111

INPUT: Name the recorded Th-T fluorescence, mean of three wells (Fig. 7a) of the item C=C1CC[C@@H]2[C@](C)(CC[C@H]3O[C@H](C=C(C)C)C[C@@]23C)[C@@H]1Cc1c(OC)oc(CO)c(C(=O)OC)c1=O [Compound 21] in your answer.
OUTPUT: 0.4977

###

biological target: Aβ42 (Homo sapiens, UniProt P05067); experiment: Th-T (thioflavin-T) assay of Aβ42 aggregation; format: biochemical; conditions: concentration 10, unit not given; time-course reading M143
Quick rule for you: Th-T fluorescence of Aβ42 with compound, mean of three wells (Fig. 7a source data) under 3 gets Yes, anything else gets No.

INPUT: Quick check: does C=C1CC[C@@H]2[C@](C)(CC[C@H]3O[C@H](C=C(C)C)C[C@@]23C)[C@@H]1Cc1c(OC)oc(CO)c(C)c1=O [Compound 20] have Th-T fluorescence of Aβ42 with compound, mean of three wells (Fig. 7a source data) under 3?
OUTPUT: No

INPUT: Quick check: does C=C1CC[C@@H]2[C@](C)(CC[C@H]3O[C@H](C=C(C)C)C[C@@]23C)[C@@H]1Cc1c(OC)oc(CO)c(C(=O)OC)c1=O [Compound 21] have Th-T fluorescence of Aβ42 with compound, mean of three wells (Fig. 7a source data) under 3?
OUTPUT: Yes

INPUT: Quick check: does C=C1CCC2C(C)(CCC=C(C)C)C(O)CCC2(C)C1Cc1c(OC)oc(CO)c(C)c1=O (centres unmarked) [Compound 12] have Th-T fluorescence of Aβ42 with compound, mean of three wells (Fig. 7a source data) under 3?
OUTPUT: Yes

INPUT: Quick check: does C=C1CCC2C(C)(CCC=C(C)C)C(O)CCC2(C)C1Cc1c(OC)oc(CO)c(C(=O)OC)c1=O (centres unmarked) [Compound 13] have Th-T fluorescence of Aβ42 with compound, mean of three wells (Fig. 7a source data) under 3?
OUTPUT: Yes

###

Assignment: determine reported Th-T fluorescence, mean of three wells for the given compounds.
target: Aβ42 (Homo sapiens); assay: Th-T (thioflavin-T) assay of Aβ42 aggregation; assay type: biochemical; conditions: compound at 50; reading M54 of time course
The answer should be written as a number, with no unit following it.

INPUT: Print Aβ42 (Homo sapiens) Th-T fluorescence, mean of three wells for C=C1CCC2C(C)(CCC=C(C)C)C(O)CCC2(C)C1Cc1c(OC)oc(CO)c(C(=O)OC)c1=O (centres unmarked) .
OUTPUT: 0.4653

INPUT: Print Aβ42 (Homo sapiens) Th-T fluorescence, mean of three wells for C=C1CC[C@@H]2[C@](C)(CC[C@H]3O[C@H](C=C(C)C)C[C@@]23C)[C@@H]1Cc1c(OC)oc(CO)c(C)c1=O .
OUTPUT: 2.134

INPUT: Print Aβ42 (Homo sapiens) Th-T fluorescence, mean of three wells for C=C1CC[C@@H]2[C@](C)(CC[C@H]3O[C@H](C=C(C)C)C[C@@]23C)[C@@H]1Cc1c(OC)oc(CO)c(C(=O)OC)c1=O .
OUTPUT: 0.2222

INPUT: Print Aβ42 (Homo sapiens) Th-T fluorescence, mean of three wells for C=C1CCC2C(C)(CCC=C(C)C)C(O)CCC2(C)C1Cc1c(OC)oc(C)c(C(=O)OC)c1=O (centres unmarked) .
OUTPUT: 4.776

INPUT: Print Aβ42 (Homo sapiens) Th-T fluorescence, mean of three wells for C=C1CCC2C(C)(CCC=C(C)C)C(O)CCC2(C)C1Cc1c(OC)oc(CO)c(C)c1=O (centres unmarked) .
OUTPUT: 1.475

From: paper PMC7156458
